Target: α2-adrenoceptor
Procedure summary: α2-adrenoceptor binding, [3H]-methoxyidazoxan displacement in rat brain homogenates
Test parameters: rat brain homogenates, Table 4; read-out: Receptor Affinities (nM) α2
Simple rule here: Ki less than 600 nM is Condition met, otherwise Condition not met.

Check out these entries, answers already filled in.
INSERT INTO assay_data (compound, target, assigned_label) VALUES
  ('c1ccc(C(NC2=NCCO2)c2ccccc2)cc1 [Compound O502]', 'α2-adrenoceptor', 'Condition met'),
  ('COC1(C2=NCCN2)COc2ccccc2O1 (centres unmarked) [Methoxyidazoxan]', 'α2-adrenoceptor', 'Condition met'),
  ('c1ccc2nc(C3=NCCN3)ccc2c1 [BU-224, 2-(4,5-dihydroimidaz-2-yl)quinoline]', 'α2-adrenoceptor', 'Condition not met'),
  ('C1CCC(C(NC2=NCCO2)C2CCCCC2)CC1 [Compound O503]', 'α2-adrenoceptor', 'Condition not met');

Alright, here's another compound for you.
QUERY: Say whether its Ki is strictly beneath 600 nM. Entry: c1ccc2c(c1)OCC(C1=NCCN1)O2 (centres unmarked) [Idazoxan, 2-(1,4-benzodioxan)-imidazoline]
RESULT: Condition met
